Taken from paper PMC5421785.

Molecular target: HLA-DRB1*01:01 (Homo sapiens, UniProt P01903+P01911, A100R/D57E/F55L/F60I/F76Y/I96L/L162R/M171V/P40L/Q125E/R42F/V115G/Y59C)
Construct: EBV transformed homozygous cell lines were used as sources of MHC molecules; endogenous in cells; host or cells: EBV transformed homozygous cell lines
Test: HLA class II peptide binding, inhibition of radiolabeled peptide binding to purified MHC
Conditions: citrullinated 15-mer peptide (X = citrulline); purified HLA-DRB1*01:01; read-out: DRB1*01:01 binding capacity, Cit peptide (IC50 nM)
Square brackets hold non-standard residues; d marks the D form. Peptide text beside a SMILES is read from it. Cit = NC(=O)NCCC[C@H](N)C(=O)O
observationType: IC50 (nM)
Give the value in nM but do not write nM after it.

Answered cases to consult:
CC(C)C[C@H](NC(=O)[C@H](CO)NC(=O)[C@H](CO)NC(=O)[C@H](Cc1ccccc1)NC(=O)[C@H](CC(N)=O)NC(=O)[C@@H]1CCCN1)C(=O)N[C@@H](CC(N)=O)C(=O)N[C@@H](CC(C)C)C(=O)N[C@@H](CCCNC(N)=O)C(=O)N[C@@H](CCC(=O)O)C(=O)N[C@H](C(=O)N[C@@H](CC(N)=O)C(=O)N[C@@H](CC(C)C)C(=O)N[C@@H](CC(=O)O)C(=O)N[C@@H](CO)C(=O)O)[C@@H](C)O [PNFSSLNLXETNLDS] (H-PNFSSLNL[Cit]ETNLDS-OH): 448
CC(C)C[C@H](NC(=O)CNC(=O)[C@H](CCCNC(=N)N)NC(=O)[C@H](CCC(=O)O)NC(=O)CNC(=O)[C@@H]1CCCN1C(=O)[C@H](CCC(=O)O)NC(=O)CNC(=O)[C@H](C)N)C(=O)N[C@@H](CCCCN)C(=O)NCC(=O)N[C@@H](Cc1c[nH]cn1)C(=O)N[C@@H](CCCNC(N)=O)C(=O)NCC(=O)N[C@@H](Cc1ccccc1)C(=O)O [AGEPGERGLKGHXGF] (H-AGEPGERGLKGH[Cit]GF-OH): 594

Please find the next compound below.
State, in one line, measured IC50 of CC[C@H](C)[C@H](NC(=O)CNC(=O)[C@@H]1CCCN1)C(=O)N[C@@H](CC(=O)O)C(=O)N[C@@H](CCSC)C(=O)N[C@@H](CO)C(=O)N[C@@H](C)C(=O)N[C@@H](Cc1ccccc1)C(=O)N[C@@H](C)C(=O)NCC(=O)N[C@@H](CC(C)C)C(=O)NCC(=O)N1CCC[C@H]1C(=O)N[C@@H](CCCNC(N)=O)C(=O)N[C@@H](CCC(=O)O)C(=O)O [PGIDMSAFAGLGPXE] (H-PGIDMSAFAGLGP[Cit]E-OH)
122

* * *

Target: HLA-DRB1*04:01 (Homo sapiens, UniProt P01903+P01911, A100K/A169T/F76Y/I96L/K127E/L162R/M171V/N62H/P40V/Q125Y/R42H/S133A/S149N/S66Y/V115G/V209L/W38E)
Construct: EBV transformed homozygous cell lines were used as sources of MHC molecules; endogenous in cells; host or cells: EBV transformed homozygous cell lines
Assay: HLA class II peptide binding, inhibition of radiolabeled peptide binding to purified MHC
Settings: citrullinated 15-mer (X); purified MHC, inhibition of radiolabeled peptide binding; dash = IC50 >40,000 nM; read-out: DRB1*04:01 binding capacity, Cit peptide (IC50 nM)
Square brackets hold non-standard residues; d marks the D form. Peptide text beside a SMILES is read from it. Cit = NC(=O)NCCC[C@H](N)C(=O)O
observationType: IC50

Answered cases to consult:
CC(C)C[C@H](NC(=O)[C@H](CC(C)C)NC(=O)[C@H](CCCNC(=N)N)NC(=O)[C@@H](NC(=O)CNC(=O)[C@@H]1CCCN1C(=O)[C@@H](NC(=O)[C@H](CO)NC(=O)[C@H](CO)NC(=O)[C@@H](N)CCCNC(N)=O)C(C)C)C(C)C)C(=O)N[C@@H](CCC(N)=O)C(=O)N[C@@H](CC(=O)O)C(=O)N[C@@H](CO)C(=O)N[C@H](C(=O)N[C@@H](CC(=O)O)C(=O)O)C(C)C [XSSVPGVRLLQDSVD] (H-[Cit]SSVPGVRLLQDSVD-OH): 9620 nM
CSCC[C@H](NC(=O)[C@H](CCC(=O)O)NC(=O)[C@H](CCC(=O)O)NC(=O)[C@H](CCC(N)=O)NC(=O)[C@H](CC(C)C)NC(=O)[C@H](CCCCN)NC(=O)[C@H](CCC(=O)O)NC(=O)[C@@H](N)CCCNC(N)=O)C(=O)N[C@@H](CC(C)C)C(=O)N[C@@H](CCC(N)=O)C(=O)N[C@@H](CCCNC(=N)N)C(=O)N[C@@H](CCC(=O)O)C(=O)N[C@@H](CCC(=O)O)C(=O)N[C@@H](C)C(=O)N[C@@H](CCC(=O)O)C(=O)O [XEKLQEEMLQREEAE] (H-[Cit]EKLQEEMLQREEAE-OH): > 40000 nM
CC(C)C[C@H](NC(=O)[C@H](CC(N)=O)NC(=O)[C@H](CC(=O)O)NC(=O)[C@H](CCCNC(N)=O)NC(=O)[C@H](CCC(=O)O)NC(=O)[C@@H](NC(=O)[C@H](CCC(=O)O)NC(=O)[C@@H](NC(=O)[C@H](CCCNC(=N)N)NC(=O)[C@H](C)NC(=O)[C@H](CCCCN)NC(=O)[C@H](CC(=O)O)NC(=O)[C@@H](N)CC(N)=O)C(C)C)C(C)C)C(=O)N[C@@H](C)C(=O)N[C@@H](CCC(=O)O)C(=O)O [NDKARVEVEXDNLAE] (H-NDKARVEVE[Cit]DNLAE-OH): 1410 nM
CC(C)C[C@H](NC(=O)[C@H](CCCNC(N)=O)NC(=O)[C@@H](NC(=O)[C@H](C)NC(=O)[C@H](CO)NC(=O)[C@H](CO)NC(=O)[C@H](CCCNC(=N)N)NC(=O)[C@@H](NC(=O)[C@H](C)NC(=O)[C@@H](N)Cc1ccc(O)cc1)[C@@H](C)O)C(C)C)C(=O)N[C@@H](CCCNC(=N)N)C(=O)N[C@@H](CO)C(=O)N[C@@H](CO)C(=O)N[C@H](C(=O)N1CCC[C@H]1C(=O)O)C(C)C [YATRSSAVXLRSSVP] (H-YATRSSAV[Cit]LRSSVP-OH): 3220 nM

Please find the next molecule below.
State, in one line, measured IC50 of CC(C)C[C@H](NC(=O)[C@H](CC(C)C)NC(=O)[C@H](CCCNC(=N)N)NC(=O)[C@@H](NC(=O)CNC(=O)[C@@H]1CCCN1C(=O)[C@@H](NC(=O)[C@H](CO)NC(=O)[C@H](CO)NC(=O)[C@H](CCCNC(=N)N)NC(=O)[C@H](CC(C)C)NC(=O)[C@H](CCCNC(N)=O)NC(=O)[C@@H](NC(=O)[C@H](C)NC(=O)[C@@H](N)CO)C(C)C)C(C)C)C(C)C)C(=O)O [SAVXLRSSVPGVRLL] (H-SAV[Cit]LRSSVPGVRLL-OH)
1050 nM

* * *

IC50: recorded values
Target: HLA-DRB1*01:01 (Homo sapiens, UniProt P01903+P01911, A100R/D57E/F55L/F60I/F76Y/I96L/L162R/M171V/P40L/Q125E/R42F/V115G/Y59C)
Construct: EBV transformed homozygous cell lines were used as sources of MHC molecules; endogenous in cells; host or cells: EBV transformed homozygous cell lines
Assay: HLA class II peptide binding, inhibition of radiolabeled peptide binding to purified MHC
Details: citrullinated 15-mer (X); purified MHC, inhibition of radiolabeled peptide binding; dash = IC50 >40,000 nM; read-out: DRB1*01:01 binding capacity, Cit peptide (IC50 nM)
Square brackets hold non-standard residues; d marks the D form. Peptide text beside a SMILES is read from it. Cit = NC(=O)NCCC[C@H](N)C(=O)O
Give the value in nM but do not write nM after it.

CC(C)C[C@H](NC(=O)[C@H](CO)NC(=O)[C@H](C)NC(=O)[C@H](CC(N)=O)NC(=O)[C@H](CC(=O)O)NC(=O)[C@@H](NC(=O)[C@H](CC(=O)O)NC(=O)[C@H](CCC(N)=O)NC(=O)[C@H](CCCNC(N)=O)NC(=O)[C@H](Cc1ccccc1)NC(=O)[C@H](CO)NC(=O)[C@H](CCC(N)=O)NC(=O)[C@H](CC(C)C)NC(=O)[C@@H](NC(=O)[C@@H](N)CC(N)=O)[C@@H](C)O)C(C)C)C(=O)O [NTLQSFXQDVDNASL] (H-NTLQSF[Cit]QDVDNASL-OH): 2000

Please find the next compound below.
State, in one line, measured IC50 of CC[C@H](C)[C@H](N)C(=O)N[C@@H](CC(=O)O)C(=O)N[C@H](C(=O)N[C@@H](CC(=O)O)C(=O)N[C@H](C(=O)N[C@@H](CO)C(=O)N[C@@H](CCCCN)C(=O)N1CCC[C@H]1C(=O)N[C@@H](CC(=O)O)C(=O)N[C@@H](CC(C)C)C(=O)N[C@H](C(=O)N[C@@H](C)C(=O)N[C@@H](C)C(=O)N[C@@H](CC(C)C)C(=O)N[C@@H](CCCNC(N)=O)C(=O)O)[C@@H](C)O)C(C)C)C(C)C [IDVDVSKPDLTAALX] (H-IDVDVSKPDLTAAL[Cit]-OH)
935
